molecular target: T1, human IL-17A/F heterodimer (human, UniProt Q16552 24-155; Q96PD4 31-163, limits assumed, biotinylated with Sulfo-NHS-LC-Biotin in the AlphaScreen assays only); experiment: AlphaScreen competition, hIL-17A/F - IL-17RA-Fc
T1 construct: also called hIL-17A/F
T1 sequence (Q16552 24-155 limits assumed, chain 1 of 2): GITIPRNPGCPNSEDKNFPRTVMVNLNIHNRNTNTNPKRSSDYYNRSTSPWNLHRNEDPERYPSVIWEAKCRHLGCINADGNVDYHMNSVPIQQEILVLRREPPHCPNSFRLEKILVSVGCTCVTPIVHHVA
T1 sequence (Q96PD4 31-163 limits assumed, chain 2 of 2): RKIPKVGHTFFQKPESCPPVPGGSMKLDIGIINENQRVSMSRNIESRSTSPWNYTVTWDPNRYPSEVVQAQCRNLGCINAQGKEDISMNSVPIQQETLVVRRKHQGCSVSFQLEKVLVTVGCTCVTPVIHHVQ
Would you kindly list pIC50 for each of these binders?
One number for each entry, as −log10 of the molar value.

Please report pIC50 for every entry that follows.
1. 04G01 (VHH, Class 2 Nanobody (anti-IL-17A and IL-17A/F); also called IL17MS04G01; not shown: c-myc, His6 tag) VHH: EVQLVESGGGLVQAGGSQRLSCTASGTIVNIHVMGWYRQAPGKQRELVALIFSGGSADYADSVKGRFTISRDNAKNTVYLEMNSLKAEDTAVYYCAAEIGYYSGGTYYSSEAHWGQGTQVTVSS
2. 17C01 (VHH, Class 4 Nanobody (cross-reactive: anti-IL-17A, IL-17F and IL-17A/F); not shown: c-myc, His6 tag) VHH: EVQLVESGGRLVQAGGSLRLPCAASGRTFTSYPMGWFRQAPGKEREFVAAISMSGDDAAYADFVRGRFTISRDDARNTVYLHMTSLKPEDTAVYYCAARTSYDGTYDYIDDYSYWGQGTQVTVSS
3. 10A04 (VHH, Class 4 Nanobody (cross-reactive: anti-IL-17A, IL-17F and IL-17A/F); not shown: c-myc, His6 tag) VHH: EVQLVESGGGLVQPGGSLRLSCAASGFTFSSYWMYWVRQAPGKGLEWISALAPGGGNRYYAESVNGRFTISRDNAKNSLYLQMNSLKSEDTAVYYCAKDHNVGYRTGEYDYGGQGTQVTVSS

Result:
1: 10.17; 2: 9.58; 3: 7.42
